- targetEntity: T1, Cyno CD33 full length (cynomolgus monkey)
- T1 construct: Stably expressed on HEK293F cells by lentiviral transduction; also called Cyno CD33 (on HEK293F cells)
- T1 sequence (chain, as listed by the source limits assumed): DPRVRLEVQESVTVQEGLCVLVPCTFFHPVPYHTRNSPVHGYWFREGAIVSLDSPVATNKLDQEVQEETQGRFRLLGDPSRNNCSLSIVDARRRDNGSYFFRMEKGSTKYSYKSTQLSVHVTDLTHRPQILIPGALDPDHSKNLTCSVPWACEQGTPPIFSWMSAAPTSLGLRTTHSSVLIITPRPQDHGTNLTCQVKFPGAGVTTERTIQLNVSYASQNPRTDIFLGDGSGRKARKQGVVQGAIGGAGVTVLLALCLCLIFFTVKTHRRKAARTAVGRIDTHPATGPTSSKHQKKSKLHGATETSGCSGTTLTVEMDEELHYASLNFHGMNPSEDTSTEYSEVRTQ
- measurementProtocol: flow cytometry on HEK293F cells expressing cyno CD33
- Protocol: The purified antibodies were assessed for binding to stably transfected HEK293F cells expressing human CD33 or cyno CD33 (generation described above) along with the parental HEK293F as negative control. […] 30 ul running buffer containing Sytox Green live/dead dye (ThermoFisher) was added to all wells with cells and the plates were read on an iQue IntelliCyt flow cytometer. […] Antibody binding was assessed by the mean fluorescence intensity in the AF647 channel. […]
measure: mean fluorescence intensity at 6 nM mAb

- C33B915 (antibody, V domains shown, OMNIMouse mAb; HC C33H255, LC C33L121 (same IDs as C33B907); also called C33F553) VH: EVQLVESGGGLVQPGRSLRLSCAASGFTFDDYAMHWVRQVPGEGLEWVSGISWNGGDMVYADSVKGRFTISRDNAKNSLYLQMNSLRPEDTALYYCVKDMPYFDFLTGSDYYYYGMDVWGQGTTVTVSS VL: SYELTQPPSVSVSPGQTASITCSGDNLGNEHVCWYHQKPGQSPVLVIYQNNKRPSGIPERFSGSNSGNTATLSISGTQATDEADYYCQAWDSTTAVFGGGTKLTVLG: 35700 MFI
- C33B910 (antibody, V domains shown, OMNIMouse mAb; HC C33H250, LC C33L116 (same IDs as C33B902)) VH: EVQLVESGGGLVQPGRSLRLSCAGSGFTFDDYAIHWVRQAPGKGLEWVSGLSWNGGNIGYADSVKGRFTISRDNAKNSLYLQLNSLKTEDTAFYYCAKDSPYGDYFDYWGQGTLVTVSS VL: DIQMTQSPSSEWASVGDRVTITCRASQGISSWLAWYQQKPGKAPKLLIYGASSWQSGVPSRFSGSGSGTDFTLTISSLQPEDFATYYCQQDNSFPYTFGQGTKLEIKR: 135 MFI
- C33B909 (antibody, V domains shown, OMNIMouse mAb; HC C33H249, LC C33L115 (same IDs as C33B901); the campaign was cloned into both IgG1 and IgG4 PAA) VH: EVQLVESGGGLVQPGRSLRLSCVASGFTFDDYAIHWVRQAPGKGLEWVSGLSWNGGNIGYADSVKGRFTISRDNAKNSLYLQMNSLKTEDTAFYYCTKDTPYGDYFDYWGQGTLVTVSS VL: DIQMTQSPSSVWASVGDRVTITCRASQGISSWLAWYQQQPGKAPNLLIYRSSSLQSGVPSRFSGSGSGTDFTLTISSLQPEDFATYYCQQDNSFPYTFGQGTKLEIKR: 135 MFI
